These data points were gathered from the supplement of paper PMC13380429.

Test system: U2OS
Test: cell viability relative to DMSO; higher = less toxic
Details: 72 h; 10 nM
So I've got a bunch of compounds here, and I need their cell viability values.
Hey, just the number and the unit after it is fine.

Please review the following examples before continuing.
[
  {
    "COMPOUND": "Cc1ncc(C[n+]2csc(CCOP(=O)(O)OP(=O)(O)O)c2C)c(N)n1 [thiamine-pyrophosphate]",
    "READOUT_KIND": "cell viability",
    "MEASURED_VALUE": "95.1%"
  },
  {
    "COMPOUND": "COC(=O)C[C@](O)(CCCC(C)(C)O)C(=O)O[C@@H]1C(OC)=C[C@]23CCCN2CCc2cc4c(cc2[C@H]13)OCO4",
    "READOUT_KIND": "cell viability",
    "MEASURED_VALUE": "101%"
  },
  {
    "COMPOUND": "CC[C@H](C)C(=O)O[C@H]1C[C@@H](C)C=C2C=C[C@H](C)[C@H](CC[C@@H]3C[C@@H](O)CC(=O)O3)[C@H]21",
    "READOUT_KIND": "cell viability",
    "MEASURED_VALUE": "108%"
  },
  {
    "COMPOUND": "Cc1cc(CN2CCN(c3c(Br)cnc4nc(-c5ccc(N6CCN(C)CC6)cc5)[nH]c34)CC2)no1",
    "READOUT_KIND": "cell viability",
    "MEASURED_VALUE": "106%"
  },
  {
    "COMPOUND": "O=C1C=CC(=O)C2=C1C1c3ccccc3C2c2ccccc21",
    "READOUT_KIND": "cell viability",
    "MEASURED_VALUE": "93.7%"
  }
]

Take each entry in turn and give its cell viability.
1. C#CCC(Cc1cnc2nc(N)nc(N)c2n1)c1ccc(C(=O)N[C@@H](CCC(=O)O)C(=O)O)cc1 (stereo partly drawn) [pralatrexate]
2. CNCCc1ccc(O)c(O)c1 [deoxyepinephrine]
3. OCCN1CCN(CC/C=C2/c3ccccc3Sc3ccc(C(F)(F)F)cc32)CC1
4. Oc1cccc(-c2c3nc(c(-c4cccc(O)c4)c4ccc([nH]4)c(-c4cccc(O)c4)c4nc(c(-c5cccc(O)c5)c5ccc2[nH]5)CC4)C=C3)c1
5. CC(=O)/N=c1/sc(S(N)(=O)=O)nn1C [methazolamide]

["76.8%", "97%", "89.9%", "104%", "107%"]

Take each entry in turn and give its cell viability.
1. Cc1c(C(=O)N2CCOc3ccc(-c4ccc(N)nc4)cc3C2)ccc(S(C)(=O)=O)c1F
2. CCn1cc(C(=O)O)c(=O)c2cc3c(cc21)OCO3
3. CCc1cc(C(C)=O)c(O)cc1OCCCCCC(C)(C)c1nn[nH]n1
4. NC(=O)NCCN1CCN(c2cccc(C(F)(F)F)c2)CC1
5. CC(C)(CO)c1cc2cc(NC(=O)C3(c4ccc5c(c4)OC(F)(F)O5)CC3)c(F)cc2n1C[C@@H](O)CO

1. 101%
2. 101%
3. 96.2%
4. 103%
5. 96.7%

Take each entry in turn and give its cell viability.
1. CN[C@@H]1[C@@H](O)[C@@H](O[C@@H]2[C@@H](O)[C@H](O[C@H]3O[C@H](CN)[C@@H](O)[C@H](O)[C@H]3O)[C@@H](N)C[C@H]2NC(=O)[C@@H](O)CN)OC[C@]1(C)O
2. COc1cc(N2CCC(O)CC2)ccc1Nc1cc(Nc2ccccc2S(=O)(=O)C(C)C)c2cc[nH]c2n1
3. Nc1nc2[nH]cc(CCc3ccc(C(=O)N[C@@H](CCC(=O)O)C(=O)O)cc3)c2c(=O)[nH]1
4. CC(=O)C1=C(O)[C@@H]2[C@H]3c4c[nH]c5cccc(c45)C[C@H]3C(C)(C)N2C1=O
5. CCc1ccc(C(=O)C(C)CN2CCCCC2)cc1 (stereo not drawn)
6. CC(C[N+](C)(C)C)OC(N)=O (stereo not drawn)
7. CC(C)c1cnn2c(NCc3ccccc3)cc(NCCCCCCN)nc12

1. 100%
2. 101%
3. 95.5%
4. 100%
5. 102%
6. 98.8%
7. 94.8%

Take each entry in turn and give its cell viability.
1. COC(=O)[C@H]1[C@H]2C[C@@H]3c4[nH]c5cc(OC)ccc5c4CCN3C[C@H]2C[C@@H](OC(=O)c2cc(OC)c(OC)c(OC)c2)[C@@H]1OC
2. NC1=NCC2c3ccccc3Cc3ccccc3N12 (stereo not drawn) [epinastine]
3. O=C(O)c1cccnc1C(=O)O
4. Cc1cccc(Nc2nc(-c3ccncc3)cs2)c1
5. CCOC(=O)[C@H](CCc1ccccc1)N[C@@H](C)C(=O)N1Cc2cc(OC)c(OC)cc2C[C@H]1C(=O)O
6. NC(=O)Nc1cc(-c2cccc(F)c2)sc1C(=O)N[C@H]1CCCNC1

97.7%
102%
103%
98.5%
102%
95.9%

Take each entry in turn and give its cell viability.
1. CC(C)N(CCC(C(N)=O)(c1ccccc1)c1ccccn1)C(C)C (stereo not drawn) [disopyramide]
2. CC(C)c1nc(CN(C)C(=O)N[C@H](C(=O)N[C@@H](Cc2ccccc2)C[C@H](O)[C@H](Cc2ccccc2)NC(=O)OCc2cncs2)C(C)C)cs1
3. COC(=O)C1=C(C)NC(C)=C(C(=O)OC)C1c1ccccc1[N+](=O)[O-]

["102%", "97.8%", "102%"]

Take each entry in turn and give its cell viability.
1. Oc1ccc2ccccc2c1Cc1c(O)ccc2ccccc12
2. O=C1OC(OC(=O)c2cccnc2Nc2cccc(C(F)(F)F)c2)c2ccccc21 (stereo not drawn) [talniflumate]

1: 101%; 2: 101%

----------
So I've got a bunch of compounds here, and I need their drug sensitivity score values.
Test system: Caco-2
Experiment: drug sensitivity score (DSS) for viability; higher = more toxic; extreme values may be limits of the assay
Conditions: 72 h
One number for each entry.

Please review the following examples before continuing.
[
  {
    "COMPOUND": "C[N+]1(CCCCC[N+]2(C)CCCC2)CCCC1",
    "MEASURED_ON": "Caco-2",
    "MEASURED_VALUE": 0
  },
  {
    "COMPOUND": "CCc1ccc(C(=O)C(C)CN2CCCCC2)cc1 (centres undefined)",
    "MEASURED_ON": "Caco-2",
    "MEASURED_VALUE": 0
  },
  {
    "COMPOUND": "CCS(=O)(=O)c1ccc2oc(-c3ccc4ccccc4c3)nc2c1",
    "MEASURED_ON": "Caco-2",
    "MEASURED_VALUE": 0.7
  },
  {
    "COMPOUND": "O=C1NC(=O)c2cc(Nc3ccc(F)cc3)c(Nc3ccc(F)cc3)cc21",
    "MEASURED_ON": "Caco-2",
    "MEASURED_VALUE": 2.2
  },
  {
    "COMPOUND": "NC(=O)c1cccc2cn(-c3ccc([C@@H]4CCCNC4)cc3)nc12",
    "MEASURED_ON": "Caco-2",
    "MEASURED_VALUE": 0
  },
  {
    "COMPOUND": "C[C@@H]1NC(=O)[C@@H](N)CNC(=O)[C@H](C2CCNC(=N)N2)NC(=O)/C(=C/NC(N)=O)NC(=O)[C@H](CNC(=O)CC(N)CCCN)NC1=O.N=C1NCC[C@H]([C@@H]2NC(=O)/C(=C/NC(N)=O)NC(=O)[C@H](CNC(=O)C[C@@H](N)CCCN)NC(=O)[C@H](CO)NC(=O)[C@@H](N)CNC2=O)N1",
    "MEASURED_ON": "Caco-2",
    "MEASURED_VALUE": 0
  },
  {
    "COMPOUND": "Clc1ccc(-c2nc3sccn3c2/C=N/OCc2ccc(Cl)c(Cl)c2)cc1",
    "MEASURED_ON": "Caco-2",
    "MEASURED_VALUE": 0
  },
  {
    "COMPOUND": "O=C(O)c1cccnc1C(=O)O",
    "MEASURED_ON": "Caco-2",
    "MEASURED_VALUE": 0
  }
]

Take each entry in turn and give its drug sensitivity score.
1. C[C@@H]1CCC[C@H](C)N1NC(=O)c1ccc(Cl)c(S(N)(=O)=O)c1 [clopamide]
2. NC(=O)c1cc([N+](=O)[O-])cc([N+](=O)[O-])c1 [nitromide]
3. NCc1ccc(S(N)(=O)=O)cc1 [mafenide]
4. C/C(=N\c1ccccc1N)c1c(C)cc(=O)n(O)c1O
5. CCc1nn(CCO)c(CC)c1Oc1cc(C#N)cc(C#N)c1
6. Cc1ccsc1/C=C/C1=NCCCN1C

1: 0; 2: 0; 3: 0; 4: 0; 5: 0; 6: 0

Take each entry in turn and give its drug sensitivity score.
1. CN1CCN(c2cc3c(cc2F)c(=O)c(C(=O)O)cn3-c2ccc(F)cc2)CC1
2. CN(C)CCC(c1ccccc1)c1ccccn1 (centres undefined)
3. C[C@@H](NC(=O)CCc1nc2ccccc2c(=O)[nH]1)c1ccccc1
4. Cn1cc(C(=O)C(=O)N[C@H]2CN3CCC2CC3)c2ccccc21
5. Nc1nc2c(cnn2CCc2ccccc2)c2nc(-c3ccco3)nn12

1. 0
2. 0
3. 0
4. 0
5. 4.1
